biological target: Glutamate NMDA receptor; Grin1/Grin2c (Rattus norvegicus, UniProt P35439+Q00961); test: Functional antagonism by electrical assays in Xenopus oocytes expressing the 1A/2C NMDA receptor
Sequence (Q00961 whole entry, other chains not shown): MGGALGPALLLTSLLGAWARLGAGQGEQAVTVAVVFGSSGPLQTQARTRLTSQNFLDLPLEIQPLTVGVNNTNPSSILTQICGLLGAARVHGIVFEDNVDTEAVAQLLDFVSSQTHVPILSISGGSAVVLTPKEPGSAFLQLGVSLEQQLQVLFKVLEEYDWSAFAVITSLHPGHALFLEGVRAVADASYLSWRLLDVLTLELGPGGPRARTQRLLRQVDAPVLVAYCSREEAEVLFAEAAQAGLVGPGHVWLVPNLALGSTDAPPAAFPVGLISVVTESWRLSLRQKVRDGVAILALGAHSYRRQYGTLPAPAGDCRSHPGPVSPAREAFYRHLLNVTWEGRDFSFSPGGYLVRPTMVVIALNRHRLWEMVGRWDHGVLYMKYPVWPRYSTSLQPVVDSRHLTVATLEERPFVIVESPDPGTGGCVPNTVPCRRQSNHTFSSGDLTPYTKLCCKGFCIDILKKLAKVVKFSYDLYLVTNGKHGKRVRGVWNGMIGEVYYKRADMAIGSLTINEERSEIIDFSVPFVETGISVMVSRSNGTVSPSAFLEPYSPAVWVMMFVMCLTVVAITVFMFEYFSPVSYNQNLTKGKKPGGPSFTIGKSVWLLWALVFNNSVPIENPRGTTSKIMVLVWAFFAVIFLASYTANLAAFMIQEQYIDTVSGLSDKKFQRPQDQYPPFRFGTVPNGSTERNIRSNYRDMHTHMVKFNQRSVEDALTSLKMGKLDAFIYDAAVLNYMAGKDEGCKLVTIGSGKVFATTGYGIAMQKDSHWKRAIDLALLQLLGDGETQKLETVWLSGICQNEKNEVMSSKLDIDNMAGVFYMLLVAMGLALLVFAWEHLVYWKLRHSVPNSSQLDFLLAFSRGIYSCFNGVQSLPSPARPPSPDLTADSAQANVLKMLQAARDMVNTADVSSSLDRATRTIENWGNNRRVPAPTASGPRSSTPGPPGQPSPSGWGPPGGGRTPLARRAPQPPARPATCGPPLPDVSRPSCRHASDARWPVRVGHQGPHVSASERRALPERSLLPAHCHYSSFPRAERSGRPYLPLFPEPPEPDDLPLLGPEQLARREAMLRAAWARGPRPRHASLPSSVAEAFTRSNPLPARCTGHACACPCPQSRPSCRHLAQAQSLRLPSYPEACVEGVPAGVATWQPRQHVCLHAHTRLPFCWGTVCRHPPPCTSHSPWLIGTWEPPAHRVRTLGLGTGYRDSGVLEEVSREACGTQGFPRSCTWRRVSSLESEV
Mark Criterion met only for IC50 values smaller than 40 µM; exact matches and larger values are Criterion not met.

>>> group("c1ccc(CCN2CCC(Cc3ccccc3)CC2)cc1")
"Criterion not met"
>>> group("CCN(CCCCc1ccccc1)CCc1ccc(O)cc1")
"Criterion not met"
>>> group("Oc1ccc(CCN2CCC(Cc3ccccc3)CC2)cc1")
"Criterion not met"
>>> group("Oc1ccc(CCNCCCc2ccccc2)cc1")
"Criterion not met"
>>> group("C[C@H](CCc1ccccc1)N[C@H](C)[C@@H](O)c1ccc(O)cc1")
"Criterion not met"
>>> group("c1ccc(CCCNCCc2ccccc2)cc1")
"Criterion not met"
>>> group("Oc1ccc(CCCNCCCCc2ccccc2)cc1")
"Criterion not met"
>>> group("c1ccc(CCCCNCCc2ccccc2)cc1")
"Criterion met"
>>> group("Oc1ccc(CCNCCCCc2ccccc2)cc1")
"Criterion not met"
>>> group("Oc1ccc(CCOCCCCc2ccccc2)cc1")
"Criterion not met"
>>> group("Oc1ccc(CCNCCCCCCc2ccccc2)cc1")
"Criterion met"

---

// reported IC50 per item
target: Glutamate NMDA receptor; Grin1/Grin2a (Rattus norvegicus, UniProt P35439+Q00959); assay: Functional antagonism by electrical assays in Xenopus oocytes expressing 1A/2A NMDA receptor subtype
Sequence (Q00959 whole entry, other chains not shown): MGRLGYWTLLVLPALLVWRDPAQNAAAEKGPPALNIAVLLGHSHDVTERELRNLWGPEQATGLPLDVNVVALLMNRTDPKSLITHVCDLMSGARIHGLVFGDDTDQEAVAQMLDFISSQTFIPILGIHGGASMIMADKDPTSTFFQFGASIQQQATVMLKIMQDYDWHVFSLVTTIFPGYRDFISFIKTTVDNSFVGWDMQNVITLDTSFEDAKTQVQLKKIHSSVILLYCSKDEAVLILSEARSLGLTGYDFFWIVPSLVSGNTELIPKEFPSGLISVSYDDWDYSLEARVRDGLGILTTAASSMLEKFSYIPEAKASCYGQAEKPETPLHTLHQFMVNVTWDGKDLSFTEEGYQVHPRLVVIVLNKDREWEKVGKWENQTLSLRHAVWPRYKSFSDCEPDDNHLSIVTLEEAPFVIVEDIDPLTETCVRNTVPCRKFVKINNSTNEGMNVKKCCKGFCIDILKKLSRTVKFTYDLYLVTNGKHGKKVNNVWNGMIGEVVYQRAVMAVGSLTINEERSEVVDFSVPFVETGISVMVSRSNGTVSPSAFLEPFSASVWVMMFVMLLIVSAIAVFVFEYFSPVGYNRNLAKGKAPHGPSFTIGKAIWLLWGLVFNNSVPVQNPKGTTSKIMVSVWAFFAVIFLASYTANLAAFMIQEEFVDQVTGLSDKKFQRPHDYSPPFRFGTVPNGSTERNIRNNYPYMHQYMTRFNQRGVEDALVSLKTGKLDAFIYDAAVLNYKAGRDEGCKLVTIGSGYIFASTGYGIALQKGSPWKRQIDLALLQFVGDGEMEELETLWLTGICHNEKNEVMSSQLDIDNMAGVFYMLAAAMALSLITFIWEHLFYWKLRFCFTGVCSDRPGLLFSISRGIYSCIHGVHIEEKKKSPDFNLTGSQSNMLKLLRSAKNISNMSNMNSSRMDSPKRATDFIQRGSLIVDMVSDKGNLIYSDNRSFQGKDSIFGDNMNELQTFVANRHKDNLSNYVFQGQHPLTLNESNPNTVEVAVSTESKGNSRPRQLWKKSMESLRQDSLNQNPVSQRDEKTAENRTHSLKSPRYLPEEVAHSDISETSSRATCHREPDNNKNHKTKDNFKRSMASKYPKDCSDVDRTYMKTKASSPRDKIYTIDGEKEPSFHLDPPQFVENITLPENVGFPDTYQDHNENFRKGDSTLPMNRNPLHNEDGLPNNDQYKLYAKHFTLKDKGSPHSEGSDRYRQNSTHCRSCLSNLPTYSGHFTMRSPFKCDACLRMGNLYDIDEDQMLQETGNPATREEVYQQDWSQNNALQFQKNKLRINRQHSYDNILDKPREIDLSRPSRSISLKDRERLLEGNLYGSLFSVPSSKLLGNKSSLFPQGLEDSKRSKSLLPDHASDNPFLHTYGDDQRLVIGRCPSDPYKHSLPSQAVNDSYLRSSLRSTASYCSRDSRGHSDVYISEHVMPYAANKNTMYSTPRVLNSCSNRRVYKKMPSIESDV
Parameter measured: IC50 (µM)

>>> measured_number("Oc1ccc(CCN2CCC(Cc3ccccc3)CC2)cc1")
57
>>> measured_number("Oc1ccc(CCNCCCCCCc2ccccc2)cc1")
17
>>> measured_number("Oc1ccc(CCNCCCCCc2ccccc2)cc1")
12
>>> measured_number("c1ccc(CCCCNCCc2ccccc2)cc1")
46
>>> measured_number("Oc1ccc(CCCNCCCCCc2ccccc2)cc1")
18
>>> measured_number("Oc1ccc(CCCNCCCCc2ccccc2)cc1")
18
>>> measured_number("CCN(CCCCc1ccccc1)CCc1ccc(O)cc1")
27
>>> measured_number("Oc1ccc(CCNCCCCc2ccccc2)cc1")
15
>>> measured_number("Oc1ccc(CCNCCCc2ccccc2)cc1")
26

---

biological target: Glutamate NMDA receptor; Grin1/Grin2b (Rattus norvegicus, UniProt P35439+Q00960); assay: Functional antagonism by electrical assays in Xenopus oocytes expressing the 1A/2B NMDA receptor
Sequence (Q00960 whole entry, other chains not shown): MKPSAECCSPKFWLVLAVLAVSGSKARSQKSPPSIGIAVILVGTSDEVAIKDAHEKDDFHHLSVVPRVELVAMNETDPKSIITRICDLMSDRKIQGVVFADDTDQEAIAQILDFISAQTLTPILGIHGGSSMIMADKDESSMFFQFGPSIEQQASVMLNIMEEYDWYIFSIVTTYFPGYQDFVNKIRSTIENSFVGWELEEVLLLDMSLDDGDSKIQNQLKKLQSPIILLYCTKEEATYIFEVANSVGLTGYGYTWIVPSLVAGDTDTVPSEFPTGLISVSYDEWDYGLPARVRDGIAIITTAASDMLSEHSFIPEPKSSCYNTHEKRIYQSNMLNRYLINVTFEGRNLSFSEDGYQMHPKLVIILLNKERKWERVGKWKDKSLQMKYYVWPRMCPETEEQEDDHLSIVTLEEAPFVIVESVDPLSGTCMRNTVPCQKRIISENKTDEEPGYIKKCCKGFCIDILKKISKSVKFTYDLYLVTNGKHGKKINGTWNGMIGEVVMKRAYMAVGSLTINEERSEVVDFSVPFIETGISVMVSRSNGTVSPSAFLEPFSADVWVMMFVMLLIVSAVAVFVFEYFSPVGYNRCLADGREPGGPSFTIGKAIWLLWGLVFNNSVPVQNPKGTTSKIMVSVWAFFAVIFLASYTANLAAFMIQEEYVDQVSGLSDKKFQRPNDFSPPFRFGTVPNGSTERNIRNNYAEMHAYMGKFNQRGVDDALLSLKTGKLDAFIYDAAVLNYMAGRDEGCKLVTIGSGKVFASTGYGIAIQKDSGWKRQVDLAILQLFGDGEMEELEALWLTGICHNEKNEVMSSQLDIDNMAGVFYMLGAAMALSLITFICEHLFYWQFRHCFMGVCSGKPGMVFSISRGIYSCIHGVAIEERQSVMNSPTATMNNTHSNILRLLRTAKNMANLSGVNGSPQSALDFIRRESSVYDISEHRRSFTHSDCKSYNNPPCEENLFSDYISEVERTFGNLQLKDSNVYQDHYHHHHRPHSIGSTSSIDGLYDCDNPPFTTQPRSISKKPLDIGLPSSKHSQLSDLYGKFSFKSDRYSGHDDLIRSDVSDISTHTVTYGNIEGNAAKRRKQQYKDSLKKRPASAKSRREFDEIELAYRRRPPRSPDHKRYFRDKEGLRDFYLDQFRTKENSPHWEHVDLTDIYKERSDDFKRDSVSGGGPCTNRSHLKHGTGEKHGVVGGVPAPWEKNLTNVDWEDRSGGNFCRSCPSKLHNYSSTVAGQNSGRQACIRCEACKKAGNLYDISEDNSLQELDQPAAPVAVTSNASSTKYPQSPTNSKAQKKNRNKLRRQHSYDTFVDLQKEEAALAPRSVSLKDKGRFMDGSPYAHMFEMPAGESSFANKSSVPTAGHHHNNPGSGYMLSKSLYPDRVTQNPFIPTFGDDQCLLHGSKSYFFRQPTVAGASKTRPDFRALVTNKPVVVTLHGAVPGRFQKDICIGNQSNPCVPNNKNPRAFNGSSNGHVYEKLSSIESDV
pIC50: −log10 of the molar value.
Note to self: values exactly at 7 are True. So pIC50 at or above 7 is True, below is False.

>>> group("Oc1ccc(CCCNCCCCCc2ccccc2)cc1")
"True"
>>> group("Oc1ccc(CCNCCCCc2ccccc2)cc1")
"True"
>>> group("Oc1ccc(CCOCCCCc2ccccc2)cc1")
"False"
>>> group("C[C@H](CCc1ccccc1)N[C@H](C)[C@@H](O)c1ccc(O)cc1")
"False"
>>> group("c1ccc(CCN2CCC(Cc3ccccc3)CC2)cc1")
"False"
>>> group("c1ccc(CCCCNCCc2ccccc2)cc1")
"False"
>>> group("c1ccc(CCCNCCc2ccccc2)cc1")
"False"
>>> group("Oc1ccc(CCNCCCCCc2ccccc2)cc1")
"True"
>>> group("Oc1ccc(CCNCCCCCCc2ccccc2)cc1")
"True"
>>> group("Oc1ccc(CCN2CCC(Cc3ccccc3)CC2)cc1")
"False"
>>> group("CCN(CCCCc1ccccc1)CCc1ccc(O)cc1")
"False"
>>> group("Oc1ccc(CCCNCCCCc2ccccc2)cc1")
"True"

---

target: Glutamate NMDA receptor; Grin1/Grin2a (Rattus norvegicus, UniProt P35439+Q00959); experiment: Functional antagonism by electrical assays in Xenopus oocytes expressing 1A/2A NMDA receptor subtype
pIC50: −log10 of the molar value.
Parameter measured: pIC50

>>> result("c1ccc(CCCNCCc2ccccc2)cc1")
"< 4.00"
>>> result("c1ccc(CCN2CCC(Cc3ccccc3)CC2)cc1")
"< 4.00"
>>> result("Oc1ccc(CCOCCCCc2ccccc2)cc1")
"< 4.00"
